System: Hepatitis B virus
Assay: Antiviral activity against HBV infected in human HepG2(2.2.15) cells assessed as inhibition of HBsAg production after 9 days by ELISA
Type: functional, organism-based
Conditions: HepG2 2.2.15, 216 h
pIC50: −log10 of the molar value.
measure-name: pIC50

COc1ccc2c(=O)c(/C=C/C(=O)Nc3ccc(C)cc3)coc2c1 :: < 4.00
CCOc1ccc(NC(=O)/C=C/c2coc3cc(OC)ccc3c2=O)cc1 :: < 4.00
COc1ccc(NC(=O)/C=C/c2coc3cc(OC)ccc3c2=O)cc1 :: < 4.00
O=C(/C=C/c1coc2cc(O)ccc2c1=O)NCc1ccccc1 :: < 4.00
COc1cccc(NC(=O)/C=C/c2coc3cc(OC)ccc3c2=O)c1 :: < 4.00
COc1ccc2c(=O)c(/C=C/C(=O)Nc3ccccc3Cl)coc2c1 :: < 4.00
COc1ccc2c(=O)c(/C=C/C(=O)Nc3cc(C)ccc3C)coc2c1 :: < 4.00
COc1ccc2c(=O)c(/C=C/C(=O)Nc3ccc(F)cc3)coc2c1 :: < 4.00
COc1ccc2c(=O)c(/C=C/C(=O)Nc3ccccc3OC)coc2c1 :: < 4.00
Cc1ccccc1NC(=O)/C=C/c1coc2cc(O)ccc2c1=O :: < 4.00
Cc1ccc(CNC(=O)/C=C/c2coc3cc(O)ccc3c2=O)cc1 :: 4.78
COc1ccc2c(=O)c(/C=C/C(=O)NCc3ccccc3F)coc2c1 :: 4.28
COc1ccc2c(=O)c(/C=C/C(=O)NCCc3ccc(F)cc3)coc2c1 :: 4.83

Hello, the source for this data is ChEMBL document CHEMBL2331205, in case you need it.
